Tested on: ACTH-refractory infantile spasm (behavioral spasms)
Test: animal or person
Assay type: in vivo, Sprague-Dawley rats
Details: rat, in vivo
Each entry below carries its reported ACTH-refractory IS (ip) Peak Time.

COMPOUND | MEASUREMENT_UNITS | ACTH-refractory IS (ip) Peak Time
CC(OC(N)=O)C(O)c1ccccc1Cl (racemic) | h | 3
C[C@H](OC(N)=O)[C@@H](O)c1ccc(Cl)cc1Cl | h | 3
CNC(=O)O[C@@H](C)[C@@H](O)c1ccccc1Cl | h | 2
CC[C@H](OC(N)=O)[C@@H](O)c1ccccc1I | h | 2
C[C@H](OC(N)=O)[C@@H](O)c1ccccc1Cl | h | 1
CC[C@H](OC(N)=O)[C@@H](O)c1ccccc1Cl | h | 3
C[C@@H](OC(N)=O)[C@@H](O)c1ccccc1Cl | h | 3
C[C@H](OC(N)=O)[C@@H](O)c1c(Cl)cccc1Cl | h | 3
C[C@@H](OC(N)=O)[C@H](O)c1c(Cl)cccc1Cl | h | 3
C[C@H](OC(N)=O)[C@@H](O)c1ccccc1I | h | 3
C[C@@H](OC(N)=O)[C@H](O)c1ccccc1Cl | h | 1
C[C@@H](OC(N)=O)[C@H](O)c1cccc(Cl)c1Cl | h | 3
